experimental.system: Hexose transporter 1 (Plasmodium falciparum) (UniProt O97467)
test.description: ST_JUDE_LEISH: Cytotoxicity at 2uM final concentration against transgenic Leishmania Mexicana promastigotes LmPfHT that are glucose transport deficient and complemented with the Plasmodium falciparum hexose transporter. Activity is measured by DNA content using SYBR green in vitro
Assay type: functional
// label = yes if inhibition is not less than 8%, otherwise no

{"molecule": "CNC(=O)c1cnc(Nc2ccc(N3CCN(C)CC3)cc2)nc1Nc1cccc(OC)c1", "assigned.category": "no"}
{"molecule": "CCOc1cc(CNCCCCCCNCc2cc(OCC)c(OCC)c3ccccc23)c2ccccc2c1OCC", "assigned.category": "yes"}
{"molecule": "N=C(N)c1cc(Cl)cc(NC(=O)Nc2cc(Cl)cc(C(=N)N)c2)c1", "assigned.category": "no"}
{"molecule": "CS(=O)(=O)c1ccc(CCNCc2ccc(-c3ccc(CN(C(=O)c4ccc(Cl)nc4)C4CCN(Cc5ccccc5)CC4)cc3)nc2)cc1", "assigned.category": "no"}
{"molecule": "Cc1ccc(NC(=O)N2CCN(CCCCCNC(=O)/C=C/c3ccc(Cl)c(Cl)c3)CC2)cc1C", "assigned.category": "no"}

----------
experimental.system: Solute carrier family 2, facilitated glucose transporter member 1 (Homo sapiens) (UniProt P11166)
Sequence (P11166 whole entry): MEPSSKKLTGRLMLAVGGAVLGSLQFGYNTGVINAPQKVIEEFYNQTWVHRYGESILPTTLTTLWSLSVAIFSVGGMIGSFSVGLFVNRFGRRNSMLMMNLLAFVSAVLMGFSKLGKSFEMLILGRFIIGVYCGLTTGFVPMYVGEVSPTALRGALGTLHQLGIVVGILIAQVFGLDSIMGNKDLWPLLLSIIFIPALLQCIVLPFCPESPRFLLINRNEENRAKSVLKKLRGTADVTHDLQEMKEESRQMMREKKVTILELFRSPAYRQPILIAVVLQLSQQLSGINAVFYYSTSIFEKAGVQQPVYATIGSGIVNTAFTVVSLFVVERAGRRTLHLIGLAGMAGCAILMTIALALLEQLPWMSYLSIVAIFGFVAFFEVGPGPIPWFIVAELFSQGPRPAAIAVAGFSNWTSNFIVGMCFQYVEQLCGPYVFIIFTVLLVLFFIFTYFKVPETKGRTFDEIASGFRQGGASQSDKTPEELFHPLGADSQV
test.description: ST_JUDE_LEISH: Cytotoxicity at 2uM final concentration against transgenic Leishmania Mexicana promastigotes LmGLUT1 that are glucose transport deficient and complemented with the human glucose transporter GLUT1. Activity is measured by DNA content using SYBR green in vitro
Type: functional

{"compound": "Nc1ncc(-c2ccc3nccc(-c4ccncc4)c3c2)cc1S(=O)(=O)N1CCCCC1", "inhibition": "12.9%"}
{"compound": "CC(C)(C)c1ccc(CN2CCCCC(NC(=O)c3cc(-c4ccccc4F)cs3)C2)cc1 (stereo not given)", "inhibition": "-1.83%"}
{"compound": "CS(=O)(=O)c1cccc(-c2cnc3[nH]cc(-c4cccc(CCN)c4)c3c2)c1", "inhibition": "4.65%"}
{"compound": "CN(C)CCCNC(=O)c1ccccc1Sc1ccccc1C#N", "inhibition": "0.79%"}
{"compound": "O=C(Nc1cc(Cl)ccc1Cl)N[C@H]1CCN(CCCCCNC(=O)C2CC2c2ccc(Cl)c(Cl)c2)C1 (stereo not given in full)", "inhibition": "1.43%"}

----------
Measured inhibition values are reported for all entries that follow.
experimental.system: Hexose transporter 1 (Plasmodium falciparum)
test.description: ST_JUDE_LEISH: Cytotoxicity at 2uM final concentration against transgenic Leishmania Mexicana promastigotes LmPfHT that are glucose transport deficient and complemented with the Plasmodium falciparum hexose transporter. Activity is measured by DNA content using SYBR green in vitro
Type: functional
property: inhibition (%)

{"molecule": "FC(F)(F)COc1ccc(CNCCCCCCNCc2ccc(OCC(F)(F)F)c3ccccc23)c2ccccc12", "experimental.system": "Hexose transporter 1 (Plasmodium falciparum)", "unit.abbreviation": "%", "test.value": 107}
{"molecule": "CN(C)c1ccc(-c2ccc(C(=O)NC3CCN(Cc4ccc5c(c4)OCCO5)CC3)s2)cc1", "experimental.system": "Hexose transporter 1 (Plasmodium falciparum)", "unit.abbreviation": "%", "test.value": 6.3}
{"molecule": "O=C(O)c1cccc2c(-c3ccncc3)cccc12", "experimental.system": "Hexose transporter 1 (Plasmodium falciparum)", "unit.abbreviation": "%", "test.value": 1.26}
{"molecule": "Cc1cccc2nc(-c3ccc(-c4cccc(C(=O)NCCc5cn(C)cn5)c4)s3)[nH]c12", "experimental.system": "Hexose transporter 1 (Plasmodium falciparum)", "unit.abbreviation": "%", "test.value": 1.96}
{"molecule": "COc1cc2nc(N3CCC(CNC(=O)c4ccc(-c5ccc(C(=O)N(C)C)cc5OCCO)cc4)CC3)nc(N)c2cc1OC", "experimental.system": "Hexose transporter 1 (Plasmodium falciparum)", "unit.abbreviation": "%", "test.value": 2.24}
{"molecule": "O=C1COc2ccccc2N1C/C=C(\\CN1CCC(c2ccccc2)CC1)c1cc(Cl)cc(Cl)c1", "experimental.system": "Hexose transporter 1 (Plasmodium falciparum)", "unit.abbreviation": "%", "test.value": 1.99}
{"molecule": "Nc1nc(N)c2c(Sc3ccccc3)cccc2n1", "experimental.system": "Hexose transporter 1 (Plasmodium falciparum)", "unit.abbreviation": "%", "test.value": 3.48}
{"molecule": "CCCCCCCCCCS(=O)(=O)N[C@H](COCc1cccc(Oc2ccccc2)c1)COP(=O)(O)OC", "experimental.system": "Hexose transporter 1 (Plasmodium falciparum)", "unit.abbreviation": "%", "test.value": 0.77}
{"molecule": "CN1CCC(NCc2cccc(-c3ccc(S(=O)(=O)NCCN4CCCC4)c(F)c3)c2)CC1", "experimental.system": "Hexose transporter 1 (Plasmodium falciparum)", "unit.abbreviation": "%", "test.value": -0.62}

----------
experimental.system: Solute carrier family 2, facilitated glucose transporter member 1 (Homo sapiens)
test.description: ST_JUDE_LEISH: Cytotoxicity at 2uM final concentration against transgenic Leishmania Mexicana promastigotes LmGLUT1 that are glucose transport deficient and complemented with the human glucose transporter GLUT1. Activity is measured by DNA content using SYBR green in vitro
Assay type: functional
Measured inhibition values are reported for all entries that follow.

{"molecule": "N#CCCn1nc(-c2ccc(Cl)cc2)c2c(c1=O)CCCC2", "inhibition / %": 0.21}
{"molecule": "CC(Cc1ccc(NC(=O)c2ccc(CC(C)NCc3ccc(Cl)cc3)cc2)cc1)NCCc1cccc(Cl)c1 (stereo not given)", "inhibition / %": 10.3}
{"molecule": "CC(=O)Nc1cccc(-c2cn(-c3ccc(OCc4cccc(F)c4)c(Cl)c3)c3ncncc23)c1", "inhibition / %": 2.04}
{"molecule": "CN(CCCCNC(=O)/C=C/c1ccccc1)C1CC2(CCN(C(=O)OC(C)(C)C)CC2)c2ccccc21 (stereo not given)", "inhibition / %": 3.4}
{"molecule": "CN(C(=O)/C=C/c1c(Cl)cccc1Cl)C1CCN(CCCCCNC(=O)/C=C/c2ccc(Cl)c(Cl)c2)CC1", "inhibition / %": 2.14}
{"molecule": "CCCCN(CCCC)C(=O)CC(O)c1cc2c(Cl)cc(Cl)cc2c2cc(C(F)(F)F)ccc12 (stereo not given)", "inhibition / %": 1.87}
{"molecule": "OC(CNc1ccnc(Nc2ccc(Cl)cc2)n1)c1ccc(C(F)(F)F)cc1 (stereo not given)", "inhibition / %": 4.91}
{"molecule": "CCOC(=O)CCCOc1cc(Cc2cnc(N)nc2N)cc(OC)c1OC", "inhibition / %": 6.94}
{"molecule": "CC(CN1CCN(C)CC1)C(=O)Nc1ccc(-c2cccc(-c3nc4ccccc4[nH]3)c2)cc1 (stereo not given)", "inhibition / %": 2.41}
{"molecule": "CNC(=O)c1ccccc1Nc1nc(Nc2ccc(C(=O)O)cc2)ncc1Cl", "inhibition / %": -1.75}
{"molecule": "O=C(Nc1ccc2c(c1)CCC2)N[C@H]1CCN(Cc2ccc(OCCCN3CCCCC3)cc2)C1", "inhibition / %": 1.25}
{"molecule": "CC(CC(=O)NCC1(c2ccc(F)cc2Cl)CCOCC1)C(=O)c1ccc(Cl)cc1 (stereo not given)", "inhibition / %": 0.34}
{"molecule": "COc1ccc2nc(N3CCNCC3)nc(NCCCc3ccccc3)c2c1", "inhibition / %": 5.1}
{"molecule": "COc1cc2nccc(Nc3ccc4c(cnn4Cc4cccc(F)c4)c3)c2cc1OC", "inhibition / %": 6.91}
{"molecule": "COc1ccc(NC(=O)CCNc2cc(C)nc(NCCOc3ccccc3)n2)cc1", "inhibition / %": 2.22}
{"molecule": "Cn1nc(C(F)(F)F)c(-c2ccc(Br)cc2)c1NC(=O)Cc1ccccc1F", "inhibition / %": -1.83}
{"molecule": "CCCN1CCN(CC(O)CNC(=O)Nc2ccc(Br)cc2)CC1 (stereo not given)", "inhibition / %": 3.68}
{"molecule": "Cc1ccc(S(=O)(=O)N2CCCN(C(=O)c3cc(-c4ccccc4)[nH]n3)CC2)cc1", "inhibition / %": -1.48}
{"molecule": "N#Cc1cccc(NC(=O)Nc2ccc(-c3cccc(-c4nc5cc(F)ccc5[nH]4)c3)cc2)c1", "inhibition / %": 3.67}
{"molecule": "Cc1cc(=NN=Cc2ccc(F)cc2)c2cc(F)ccc2[nH]1", "inhibition / %": 2.6}

----------
Measured inhibition values are reported for all entries that follow.
experimental.system: Glucose transporter (Leishmania mexicana) (UniProt O61059)
test.description: ST_JUDE_LEISH: Cytotoxicity at 2uM final concentration against transgenic Leishmania Mexicana promastigotes LmGT2 that are glucose transport deficient and complemented with the L. Mexicana glucose transporter 2. Activity is measured by DNA content using SYBR green in vitro
Format: functional

{"compound": "COc1cc2cc(Cc3cnc(N)nc3N)ccc2c(OC)c1OC", "inhibition": "1.56%"}
{"compound": "CCOC(=O)CCCOc1c(OC)cc(Cc2cnc(N)nc2N)cc1OC", "inhibition": "-2.34%"}
{"compound": "COc1ccc(NC(=O)Nc2ccc(-c3ccc(-c4nc5cccc(C)c5[nH]4)s3)cc2)cc1", "inhibition": "3.71%"}
{"compound": "N#Cc1ccc(CN2CCC(Oc3ccc(NC(=O)c4ccco4)cc3Cl)CC2)cc1", "inhibition": "7.81%"}
{"compound": "CCOc1ccc2c(c1)OC(c1ccccc1)(C(F)(F)F)NC2=O (stereo not given)", "inhibition": "1.65%"}
{"compound": "CCOC(=O)c1cc(Cl)cc(Cl)c1OCCCON1C(=N)N=C(N)NC1(C)C", "inhibition": "1.35%"}
{"compound": "O=C(Nc1cccc(CN2CCCN(Cc3ccc4c(c3)OCO4)CC2)c1)c1ccc2ccccc2c1", "inhibition": "-7.63%"}
{"compound": "CC1CCc2sc(-c3nnc(SC(C)C(=O)N4CCCC4)o3)cc2C1 (stereo not given)", "inhibition": "-4.77%"}
{"compound": "COC(=O)c1ccc(-c2ccc(-c3cccnc3)cc2C)cc1", "inhibition": "74.1%"}
{"compound": "CC(C)c1cc(Oc2c(I)cc(CCNC(=N)N)cc2I)ccc1O", "inhibition": "-2.44%"}
{"compound": "O=C(C=Cc1cccc(F)c1)NC1CCC(CCN2CCc3ccc(-c4cnccn4)cc3CC2)CC1 (stereo not given)", "inhibition": "13.1%"}
{"compound": "Cc1nc(-c2cccc(Nc3nccc(NCC(O)c4cccc(C(F)(F)F)c4)n3)c2)cs1 (stereo not given)", "inhibition": "-0.26%"}
{"compound": "COC(=O)c1c(C#N)c(OC)cc(O)c1CSC[C@H](Nc1nc(-c2ccc([N+](=O)[O-])cc2)cs1)C(=O)NCCN1CCCCC1", "inhibition": "-0.42%"}
{"compound": "Nc1nccc2ccc(OC3CCCCC3)cc12", "inhibition": "1.91%"}
{"compound": "COc1ccc(NC(=O)/C=C/c2cc(F)cc(C(F)(F)F)c2)cc1OCCN(C(C)C)C(C)C", "inhibition": "6.4%"}
{"compound": "Brc1ccc(Nc2nc(NCc3ccccc3)c3ccccc3n2)cc1", "inhibition": "6.03%"}
{"compound": "CC(Cc1ccc(OCC(=O)NCC2CCN(CCc3cccc(Cl)c3)CC2)cc1)NCCc1cccc(Cl)c1 (stereo not given)", "inhibition": "1.92%"}
{"compound": "Cc1ccc(CNC(=O)c2cnc(N3CCN(c4ccncc4)CC3)c(Cl)c2)cc1", "inhibition": "3.12%"}
{"compound": "CN(Cc1ccc(C#N)cc1)C1CCN(c2cc(NC(=O)c3cccc(F)c3)ccn2)CC1", "inhibition": "0.96%"}
{"compound": "CC(C)c1ccc(NC(=O)c2cccc(CN3CCCN(Cc4cccc(O)c4)CC3)c2)cc1", "inhibition": "7.67%"}
